src = patent US8178694B2

tested on: Respiratory Syncytial Virus; assay: In vitro screening for activity against Respiratory Syncytial Virus (tetrazolium-based colorimetric assay, HeLa cells); assay type: cell-based; settings: human respiratory syncytial virus, 168 h; protection against cytopathology caused by RSV in HeLa cells, MTT readout seven days after infection
pEC50: −log10 of the molar value.
Measured Metric: pEC50

                                chem_smiles  assay_result
0  OCCc1ncccc1NCc1ccc2nc(NCCCN3CCOCC3)n(Cc3ncccc3O)c2c1          6.70
1  OCCc1ccncc1NCc1ccc2nc(NCCCN3CCOCC3)n(Cc3ncccc3O)c2c1          6.35
2  Cc1ccc(O)c(Cn2c(NCCCN3CCOCC3)nc3ccc(CNc4cccnc4CCO)cc32)n1          7.50
3  Cc1ccc(O)c(Cn2c(NCCCN3CCOCC3)nc3ccc(CNc4cnccc4CCO)cc32)n1          7.30
